MEASURED_ON: Adenosine receptor A1 (Homo sapiens) (UniProt P30542)
Sequence (P30542 whole entry): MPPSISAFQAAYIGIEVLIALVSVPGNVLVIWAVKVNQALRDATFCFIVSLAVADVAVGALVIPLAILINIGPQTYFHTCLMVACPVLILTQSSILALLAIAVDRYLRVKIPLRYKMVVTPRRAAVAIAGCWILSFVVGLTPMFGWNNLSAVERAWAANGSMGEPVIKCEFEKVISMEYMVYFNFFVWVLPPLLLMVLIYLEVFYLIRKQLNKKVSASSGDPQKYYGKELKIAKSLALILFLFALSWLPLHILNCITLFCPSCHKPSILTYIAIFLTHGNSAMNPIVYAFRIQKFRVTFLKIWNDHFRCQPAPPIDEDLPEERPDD
ASSAY_PROTOCOL: Displacement of […] from human adenosine A1 receptor expressed in CHO cells at 10 uM
Format: cell-based
ASSAY_READOUT: inhibition
Remember to follow the number with its unit.

Some molecules with known inhibition results, for comparison:
{"columns": ["SMILES_DATA", "RESULT"],
 "data": [
  ["CCCSc1nc(NC(C)=O)cc(OCc2ccc(Cl)cc2Cl)n1", "46%"],
  ["CCCSc1nc(NC(C)=O)cc(OCC2CCCCC2)n1", "43%"],
  ["CCCCSc1nc(NC(C)=O)cc(OCc2ccc(Cl)cc2)n1", "0%"],
  ["CCCOc1cc(NC(C)=O)nc(SC)n1", "7%"],
  ["CCC(=O)Nc1cc(OC)nc(SC)n1", "2%"]
]}

Hey, quick one: what's inhibition for each of these?
1. CCCSc1nc(NC(C)=O)cc(OC)n1
2. CCCSc1nc(NC(C)=O)cc(OCc2ccc(Cl)cc2)n1
3. CCCOc1cc(NC(=O)CC)nc(SC)n1
4. COc1cc(NC(C)=O)nc(SC)n1

43%
17%
19%
30%

The molecule CCCOc1cc(NC(C)=O)nc(SCc2ccccc2)n1 on Adenosine receptor A1 (Homo sapiens) (UniProt P30542): inhibition was 34%
